biological target: UniProtKB P56726; assay: Inhibition of Smo in mouse C3H10T1/2 cells assessed as inhibition of human Shh-induced cell differentiation after 48 hrs by alkaline phosphatase reporter assay relative to cyclopamine; assay type: cell-based; conditions: C3H 10T1/2
Sequence (P56726 whole entry): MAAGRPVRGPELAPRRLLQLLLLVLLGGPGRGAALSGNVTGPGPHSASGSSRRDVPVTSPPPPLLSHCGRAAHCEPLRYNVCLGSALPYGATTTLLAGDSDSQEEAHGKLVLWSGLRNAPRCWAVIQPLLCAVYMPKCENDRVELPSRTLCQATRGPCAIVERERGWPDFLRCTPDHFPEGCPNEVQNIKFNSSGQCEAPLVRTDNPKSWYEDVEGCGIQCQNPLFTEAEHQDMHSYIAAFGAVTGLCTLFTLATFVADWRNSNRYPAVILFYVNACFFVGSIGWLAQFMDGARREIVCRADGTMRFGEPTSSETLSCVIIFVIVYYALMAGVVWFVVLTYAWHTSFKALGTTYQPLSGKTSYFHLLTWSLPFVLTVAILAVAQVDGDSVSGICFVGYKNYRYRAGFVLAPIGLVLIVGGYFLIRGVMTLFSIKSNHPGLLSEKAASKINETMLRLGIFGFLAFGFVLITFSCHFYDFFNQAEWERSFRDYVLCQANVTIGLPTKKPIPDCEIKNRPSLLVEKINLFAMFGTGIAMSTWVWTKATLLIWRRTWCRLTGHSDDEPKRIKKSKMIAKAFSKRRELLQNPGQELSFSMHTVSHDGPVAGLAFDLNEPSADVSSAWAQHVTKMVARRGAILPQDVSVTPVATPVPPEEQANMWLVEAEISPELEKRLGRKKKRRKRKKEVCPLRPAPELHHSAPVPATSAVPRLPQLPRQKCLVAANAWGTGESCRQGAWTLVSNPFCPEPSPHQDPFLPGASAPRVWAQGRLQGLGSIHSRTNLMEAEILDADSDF
Readout label: Imax (%)

Mol: O=C(C[C@@H]1C/C=C/CCC(=O)N[C@H](c2ccccc2)COC1=O)NCc1ccc(Cl)cc1
Number: 86
--
Mol: C[C@H]1C/C=C/C[C@@H](CC(=O)NCc2ccc(Cl)cc2)C(=O)OC[C@@H](c2ccccc2)NC1=O
Number: 78
--
Mol: O=C(C[C@@H]1C/C=C/CCC(=O)N[C@H](C2CCCCC2)COC1=O)NCc1ccc(Cl)cc1
Number: 75
--
Mol: CCCC[C@@H]1COC(=O)[C@H](CC(=O)NCc2ccc(Cl)cc2)C/C=C/CCC(=O)N1
Number: 53
--
Mol: O=C(CN1C/C=C/CCC(=O)N[C@H](c2ccccc2)COC1=O)NCc1ccc(Cl)cc1
Number: 47
